The origin of these recorded values is patent US9309235B2.

# ASSAY_TARGET: soluble guanylate cyclase (sGC) (Homo sapiens, UniProt Q02108+Q02153)
# Construct: endogenously expressing soluble guanylate cyclase (sGC); endogenous in cells; host or cells: HEK293
# TEST_SUMMARY: sGC-HEK-cGMP assay (run with SNP incubation)
# Assay type: cell-based
# APPLIED_CONDITIONS: maximum activity from full concentration-response curve, top not fitted to 100%; relative to positive control BAY 41-2272; read-out: HEK assay Emax-unconstrained (Percent)
TEST_READOUT: Emax

Illustrative cases are given below, each with its answer.
| INPUT_SMILES | TEST_READOUT | REPORTED_VALUE |
| --- | --- | --- |
| Oc1nc(-c2cc(-c3ccon3)n(Cc3sccc3F)n2)ncc1F | Emax | 40 to 60% |
| Oc1nc(-c2cc(-c3ccon3)n(Cc3ccsc3)n2)ncc1F | Emax | 40 to 60% |
| Nc1ccnc(-c2cc(-c3ccon3)n(Cc3ccsc3)n2)n1 | Emax | 60 to 80% |

Query: Look up Emax: Oc1nc(-c2cc(-c3ccon3)n(Cc3cccs3)n2)ncc1F
Result: 60 to 80%

----------
# ASSAY_TARGET: soluble guanylate cyclase (sGC) (Homo sapiens, UniProt Q02108+Q02153)
# Construct: endogenously expressing soluble guanylate cyclase (sGC); endogenous in cells; host or cells: HEK293
# Sequence (Q02153 1-619): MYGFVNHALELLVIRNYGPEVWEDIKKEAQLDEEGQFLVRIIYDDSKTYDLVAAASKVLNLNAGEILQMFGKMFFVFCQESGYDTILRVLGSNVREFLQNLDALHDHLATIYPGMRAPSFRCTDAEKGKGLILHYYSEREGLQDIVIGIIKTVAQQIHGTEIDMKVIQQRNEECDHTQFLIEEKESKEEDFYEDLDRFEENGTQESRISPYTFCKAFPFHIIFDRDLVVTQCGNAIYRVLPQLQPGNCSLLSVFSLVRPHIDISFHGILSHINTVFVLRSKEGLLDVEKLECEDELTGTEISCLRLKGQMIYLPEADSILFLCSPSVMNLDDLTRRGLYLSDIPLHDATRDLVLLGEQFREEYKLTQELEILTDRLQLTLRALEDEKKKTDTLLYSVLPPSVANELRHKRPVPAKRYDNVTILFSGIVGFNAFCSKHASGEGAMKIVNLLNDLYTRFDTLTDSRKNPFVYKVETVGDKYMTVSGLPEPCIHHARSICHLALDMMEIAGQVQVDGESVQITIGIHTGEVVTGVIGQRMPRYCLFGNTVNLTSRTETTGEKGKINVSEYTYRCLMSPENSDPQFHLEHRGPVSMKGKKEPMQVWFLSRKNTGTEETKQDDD
# Sequence (Q02108 1-690): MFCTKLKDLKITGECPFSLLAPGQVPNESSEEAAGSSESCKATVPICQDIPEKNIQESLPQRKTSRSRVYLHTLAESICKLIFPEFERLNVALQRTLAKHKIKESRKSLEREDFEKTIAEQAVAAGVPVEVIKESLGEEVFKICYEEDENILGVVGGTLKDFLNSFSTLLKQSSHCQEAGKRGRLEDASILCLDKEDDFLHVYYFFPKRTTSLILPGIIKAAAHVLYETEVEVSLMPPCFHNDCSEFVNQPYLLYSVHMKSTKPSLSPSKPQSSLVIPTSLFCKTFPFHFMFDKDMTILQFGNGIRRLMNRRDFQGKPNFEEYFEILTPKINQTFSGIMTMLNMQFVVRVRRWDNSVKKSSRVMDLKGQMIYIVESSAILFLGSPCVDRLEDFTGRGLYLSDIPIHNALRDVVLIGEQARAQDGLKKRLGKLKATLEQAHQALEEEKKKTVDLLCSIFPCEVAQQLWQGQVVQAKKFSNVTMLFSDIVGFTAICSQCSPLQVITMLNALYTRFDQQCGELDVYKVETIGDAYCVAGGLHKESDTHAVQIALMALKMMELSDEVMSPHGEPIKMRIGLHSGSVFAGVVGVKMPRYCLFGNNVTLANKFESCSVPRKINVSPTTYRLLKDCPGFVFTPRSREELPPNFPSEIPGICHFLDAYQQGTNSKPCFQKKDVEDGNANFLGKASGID
# TEST_SUMMARY: sGC-HEK-cGMP assay (run with SNP incubation)
# Format: cell-based
# APPLIED_CONDITIONS: test compound 30 μM, 10 μM SNP; Emax = 100% is BAY 41-2272 at 10 μM in the presence of 100 μM SNP; read-out: HEK assay (Percent Emax at 30 μM)
TEST_READOUT: Emax at 30 µM

Take a look at these entries with their results.
| INPUT_SMILES | Emax at 30 µM |
| --- | --- |
| Oc1nc(-c2cc(-c3ccon3)n(Cc3cccs3)n2)ncc1F | 40 to 60% |
| Oc1nc(-c2cc(-c3ccon3)n(Cc3sccc3F)n2)ncc1F | 60 to 80% |
| Nc1ccnc(-c2cc(-c3ccon3)n(Cc3ccsc3)n2)n1 | 60 to 80% |

Please look at the following compound next.
Query: For the compound shown here, Oc1nc(-c2cc(-c3ccon3)n(Cc3ccsc3)n2)ncc1F , give the reported Emax at 30 µM.
Result: 40 to 60%
